system: M14; experiment: NCI tumour cell line growth inhibition, 48 h
Active and inactive are the calls of the source. Cut-off read from the data, not from the text of the source: active = GI50 up to about 1.1 µM and inactive = higher.
Please reply with one of these outcomes: active, inactive

Reference set, count: 3
CC(=O)Oc1cccc2c1C(=O)c1c(OC(C)=O)cc(C)cc1C2=O ... inactive
COc1cccc2c1C(=O)c1c(O)c3c(c(O)c1C2=O)CC(O)(C(O)CO)CC3OC1CC(N2CCOCC2)C(O)C(C)O1 (stereo not given) ... active
O=C(O)c1ccc(C(=O)c2ccccc2)c(C(=O)O)c1 ... inactive

In: State the result this test recorded for C=CCc1cc(OC)c2c(c1)C(OC(C)=O)CC(c1ccc(OC)c(OC)c1)O2 (stereo not given) .
Out: inactive

In: Now consider CC(/C=C/c1ccccc1)=N\NC(=S)N/N=C(C)/C=C/c1ccccc1 and answer again.
Out: inactive

In: Same lookup for C[C@@H]1Nc2cc(NC(=O)OCCF)nc(N)c2N=C1c1ccccc1 , please.
Out: active

###

tested on: COLO 205; experiment: NCI tumour cell line growth inhibition, 48 h
Calls of active or inactive are those of the source. Cut-off read from the data, not from the text of the source: active = GI50 up to about 1.1 µM and inactive = higher.
One label from this list, please: true (1) (active), false (0) (inactive)

OCCNCCOc1ccc(/C(=C(/Cl)c2ccccc2)c2ccccc2)cc1 ... false (0)
CC(=O)Nc1c(S(=O)(=O)c2ccccc2)c(C)c(C)n1Cc1ccccc1 ... false (0)
C#CCC1(C(=O)OCC)C(=O)c2ccccc2N(C)C1=O (centres undefined) ... false (0)
Cn1nc(S(N)(=O)=O)s/c1=N/C(N)=S ... false (0)
CC(C)N(C(=O)C12C3C4C5(C(=O)O)C(C1C35I)C42C(=O)O)C(C)C (centres undefined) ... false (0)
CCOP(=O)(O)C(Nc1ccc(/N=N/c2ccccc2)cc1)c1ccc(C(Nc2ccc(/N=N/c3ccccc3)cc2)P(=O)(O)OCC)cc1 (centres undefined) ... false (0)
COc1cccc2c1C(=O)c1c(O)c3c(c(O)c1C2=O)CC(O)(C(O)CO)CC3OC1CC(N2CCOCC2)C(O)C(C)O1 (centres undefined) ... true (1)
Cc1c2c(n(CCc3ccc(Cl)cc3)c1C)NN=C(C#N)S2(=O)=O ... false (0)

Let us examine a further case.
In: Hi team, can someone confirm the assay call for CC(C)OC(=O)[C@H]1ON2O[C@H](O[C@@H]3CCCC[C@H]3c3ccccc3)C([Si](C)(C)c3ccccc3)[C@H]3OC(=O)[C@@H]1C32 (some centres undefined) ?
Out: false (0)

###

tested on: HCC 2998; assay: NCI tumour cell line growth inhibition, 48 h
Calls of active or inactive are those of the source. Cut-off read from the data, not from the text of the source: active = GI50 up to about 1.1 µM and inactive = higher.
Classes to choose from: active, inactive

Worked examples follow.
COc1ccc(C(=O)C#Cc2cnc(OC)nc2OC)cc1 ... inactive
CC(/C=C/c1ccccc1)=N\NC(=S)N/N=C(C)/C=C/c1ccccc1 ... inactive
CCCCC(/C=C\COC1CCCCO1)=C/C(=O)OCC (stereo not given) ... inactive
Cc1nc2c(O)cccc2c(=O)[nH]1 ... inactive
COc1ccc(NS(=O)(=O)c2ccc(NC(NC(=O)CC(C)C)(C(F)(F)F)C(F)(F)F)cc2)nn1 ... inactive

In: So what was the verdict on C=CCn1c(=O)n(CC=C)c(=O)n(CC=C)c1=O in this test?
Out: inactive

In: Same for COC(=O)[C@H]1C=C[C@@H](C)n2c(=O)c3cc4ccccc4cc3c(=O)n21
Out: inactive

In: Input CC(=O)NC1C(OCc2ccccc2)OC(CO)C(O)C1OC(C)C(=O)N[C@@H](C)C(=O)N[C@H](CCC(=O)NCCNCCNc1c2ccccc2nc2cccc([N+](=O)[O-])c12)C(N)=O (stereo not given in full)
Out: active

In: Then O=C1NCC2(CCN(CCCC3(c4ccc(F)cc4)OCCO3)CC2)N1c1ccccc1 ?
Out: inactive

In: Next entry: CC(=O)Nc1c(S(=O)(=O)c2ccccc2)c(C)c(C)n1Cc1ccccc1
Out: inactive

In: Try CCOC(=O)c1nc2c3c(ncn2n1)Oc1c(c(-c2ccccc2)nn1-c1ccccc1)C3c1ccc(Cl)cc1 (stereo not given) next.
Out: inactive

In: Then this compound: CC(=O)c1ccc(/N=N/N2CCCC2)cc1
Out: inactive

In: Also O=C(O)CCC(NC(=O)/C(=C/c1ccccc1)NC(=O)c1ccccc1)C(=O)O (stereo not given) , if possible.
Out: inactive

In: Same question, CCCCCc1cc2cc3c(c(O)c2c(=O)[nH]1)C1(CCC3)C(=O)c2c(O)ccc(O)c2C1=O this time
Out: inactive

###

test system: DU-145; assay: NCI tumour cell line growth inhibition, 48 h
Activity calls are given as the source filed them. Rule as the data show it: active = GI50 up to about 1.1 µM and inactive = higher.
Permitted responses: 1 (yes) for active, 0 (no) for inactive

For orientation, consider the following solved cases.
CN1CCCCCC(=N\O)/C(=N/O)CCCCC1 ... 0 (no)
COc1cc(OC)cc(C(=O)CC(=O)c2cc(OC)cc(OC)c2)c1 ... 0 (no)
CCC(=S)N(C)O ... 0 (no)
CC[C@@]1(O)C(=O)OCc2c1cc1n(c2=O)Cc2c-1nc1ccccc1c2/C=N\NC(=O)C(N)Cc1c[nH]c2ccccc12 (stereo partly specified) ... 1 (yes)
CSc1s[s+]c(SC)c1-c1ccccc1 ... 0 (no)

In: What was the test verdict on CCN(CC)Cc1ccc(C(=S)Nc2ccc(Cl)cc2)s1 ?
Out: 0 (no)

###

In this section we review reported GI50 values for a set of compounds.
system: EKVX; experiment: NCI tumour cell line growth inhibition, 48 h
Calls of active or inactive are those of the source. Rule as the data show it: active = GI50 up to about 1.1 µM and inactive = higher.

N#Cc1c(-c2ccccc2)c(/C=N/c2ccc(F)cc2)c(=O)n2c1[nH]c1ccccc12 ... 19.8 µM (inactive)
Fc1cc(F)c(F)c(S)c1F ... 25.9 µM (inactive)
CC(=O)NC1C(OCc2ccccc2)OC(CO)C(O)C1OC(C)C(=O)N[C@@H](C)C(=O)N[C@H](CCC(=O)NCCNCCNc1c2ccccc2nc2cccc([N+](=O)[O-])c12)C(N)=O (some centres undefined) ... 0.199 µM (active)

In: Find the measured GI50: item C=Cc1ccccc1C1C(C(=O)OCC)=C(C)N=C2OC(C(=O)OC)C(=O)N21 (centres undefined) , target or system EKVX.
Out: > 100 µM (inactive)

###

Below: a set of entries, each annotated with reported GI50.
test system: NCI-H522; experiment: NCI tumour cell line growth inhibition, 48 h
Calls of active or inactive are those of the source. Cut-off read from the data, not from the text of the source: active = GI50 up to about 1.1 µM and inactive = higher.

CN(C)NC(=O)NC12CC3CC(CC(C3)C1)C2 ... > 100 µM (inactive)

In: Given the entry COc1ccc2c(c1OC)C(=O)N1C2=Cc2c(cc3c(c2OC)OCO3)CC1N(C)C (stereo unspecified) , what GI50 was observed with NCI-H522?
Out: 28.9 µM (inactive)

In: Quick one: CNC(=O)CCNC(=O)CCC(=O)N(C)C
Out: 2.77 µM (inactive)

###

test system: HCT-116; test: NCI tumour cell line growth inhibition, 48 h
The source made the active and inactive calls. Cut-off read from the data, not from the text of the source: active = GI50 up to about 1.1 µM and inactive = higher. Where a SMILES comes first, the peptide text is derived from it. The star is where a group is joined. Cbz = O=C(OCc1ccccc1)*; Boc = CC(C)(C)OC(=O)*; Bn = c1ccc(C*)cc1
readout_type: GI50

CC(C)OC(=O)[C@H]1ON2O[C@H](O[C@@H]3CCCC[C@H]3c3ccccc3)C([Si](C)(C)c3ccccc3)[C@H]3OC(=O)[C@@H]1C32 (some centres undefined) ... > 100 µM (inactive)
Nc1ccc2c(c1)C(=O)c1ccccc1-2 ... > 100 µM (inactive)
CC(C)(C)OC(=O)NC(Cc1ccc(OCc2ccccc2)cc1)C(=O)NC(CCCCNC(=O)OCc1ccccc1)C(=O)O (centres undefined) (Boc-Tyr(Bn)-Lys(Cbz)-OH; configuration not given here) ... 31.3 µM (inactive)
Nc1nc(N)c(-c2cccc(C(F)(F)F)c2)c(Cc2cccc(C(F)(F)F)c2)n1 ... 0.64 µM (active)
O=c1[nH]cnc2c1sc1nc3ccccc3n12 ... 70.3 µM (inactive)
Oc1ccc2c(c1)c1c(n2CCN2CCOCC2)-c2ccccc2CC1 ... 37.2 µM (inactive)
COC(=O)c1ccccc1NC(=O)C(=O)CC(=O)CC(c1ccccc1)c1c(O)c2ccccc2oc1=O (centres undefined) ... > 100 µM (inactive)
COc1cc2c(cc1O)C1C(O)C(O)C=C3CCN(C2)C31 (centres undefined) ... 0.158 µM (active)

Please examine the following record next.
In: Requested read-out: GI50. Entry: COc1cc(/N=C(\N)N=C(N)N)c2ncccc2c1
Out: > 100 µM (inactive)

###

system: K562; experiment: NCI tumour cell line growth inhibition, 48 h
Activity calls are given as the source filed them. Cut-off read from the data, not from the text of the source: active = GI50 up to about 1.1 µM and inactive = higher.
Give one outcome, nothing more. List: active, inactive

Cc1n[nH]c(=O)n1-c1cccnc1 ... inactive
CC(=O)O[C@H]1CC[C@@]2(C)C(=CC[C@@H]3[C@@H]2CC[C@]2(C)Nc4c(cnn4S(C)(=O)=O)C[C@@H]32)C1 ... inactive
CC(=O)c1ccc2c3c1[C@H]1O[C@H]1c1cccc(c1-3)[C@@H]1O[C@H]21 ... active

In: Dear colleague, could you share the recorded outcome for Cc1cc(C)nc(NS(=O)(=O)c2ccc(NC(=O)NC(F)(F)F)cc2)n1 when you have a moment?
Out: inactive

In: And what about the molecule Cc1c(NC(=O)c2cc([N+](=O)[O-])cc([N+](=O)[O-])c2)c(=O)n(-c2ccccc2)n1C ?
Out: inactive

FYI, the data here is from ChEMBL document CHEMBL1201862.
